The measured values listed here are drawn from PubChem BioAssay (NCI).

- Test system: DU-145 prostate
- MEASUREMENT_PROTOCOL: NCI tumour cell line growth inhibition, 48 h
ENDPOINT_LABEL: TGI

Fill in: TGI of `O=C(NNc1ccccc1)c1ccc(Cl)c(Cl)c1` is ___ > 100 µM

Fill in: TGI of `C[C@H](c1ccccc1)n1c(N)c(-c2nc3ccccc3s2)c2ccc([N+](=O)[O-])cc2c1=O` is ___ > 38.8 µM

Fill in: TGI of Cc1ccc2c(c1)C=CC1(O2)N(c2ccccc2)C(=S)OC1(C)C (stereo unspecified) is ___ > 100 µM

Fill in: TGI of `COc1cc2c3c(n(CCN4CCOCC4)c(=O)c2cc1OC)-c1ccccc1C3=O` is ___ > 100 µM

Fill in: TGI of `CCN(CC)/[N+]([O-])=N/OCOC` is ___ > 100 µM

Fill in: TGI of `COCCNCc1ccc(-c2cc3nccc(Oc4ccc(NC(=O)C5(C(=O)Nc6ccc(F)cc6)CC5)cc4F)c3s2)nc1` is ___ 4.51 µM

Fill in: TGI of `c1ccc(C2=NN=C3C(c4ccccc4)=Nc4ccccc4N3C2)cc1` is ___ > 100 µM

Fill in: TGI of `Cc1c(Cl)cccc1NC(=O)c1sc2nc3c(cc2c1N)C(=O)CCC3` is ___ 47.3 µM

Fill in: TGI of `COC(=O)[C@]12C3=C(O)C(=O)C[C@H]1OC[C@H]2C=CC3` is ___ > 100 µM

Fill in: TGI of CC(Cc1ccccc1)N(C)Cc1nc(C2CCC([N+](=O)[O-])O2)no1 (stereo unspecified) is ___ 24.9 µM

Fill in: TGI of OC(CN1CCCC2CCCCC21)c1cc2ccccc2c2ccccc12 (stereo unspecified) is ___ 14 µM

====

- Tested on: NCI-H23 lung
- MEASUREMENT_PROTOCOL: NCI tumour cell line growth inhibition, 48 h
Please go through the items and note down their GI50.

Fill in: GI50 of `Oc1ccc(Cl)cc1Sc1cc(Cl)ccc1O` is ___ 2.23 µM

Fill in: GI50 of `Cc1cc2c3c([n+](C)c4ccc(F)cc4c3c1)-c1cc(F)ccc1N2C` is ___ 9.46 µM

Fill in: GI50 of `Cc1c(Cl)cccc1NC(=O)c1sc2nc3c(cc2c1N)C(=O)CCC3` is ___ 0.137 µM

Fill in: GI50 of `CSc1nnc(-c2cc3c([nH]c4ccccc43)c(-c3cccc(O)c3)n2)n1-c1ccc(C)cc1` is ___ 5.76 µM

Fill in: GI50 of `COc1cc2c(NC3CCN(C(C)C)CC3)nc(C3CCCCC3)nc2cc1OCCCN1CCCC1` is ___ 10.8 µM

Fill in: GI50 of `Cc1ccc(-c2c3c(nn2-c2ccc(S(=O)(=O)NC(=O)NC4CCCCC4)cc2)-c2ccccc2C3)cc1` is ___ 10.9 µM

Fill in: GI50 of CNCC(=O)NC(CO)C(=O)NC(CO)C(=O)NC1C(C(N)=O)OC(n2ccc(N)nc2=O)C(O)C1O (stereo not drawn) is ___ 8.49 µg/mL

Fill in: GI50 of `C#CCOc1cccc(Nc2ncnc3cc(NC(=O)C=C)ccc23)c1` is ___ 26.6 µM

====

- System: SNB-75 CNS
- MEASUREMENT_PROTOCOL: NCI tumour cell line growth inhibition, 48 h
Please go through the items and note down their TGI.

Value wanted: TGI (SNB-75 CNS) of entry CCCCCCCCC(C)CCCCCCCCC(=O)OCC(COP(=O)([O-])OCC[N+](C)(C)C)OC(=O)CCCCCCCCC(C)CCCCCCCC (centres undefined) > 100 µM

Value wanted: TGI (SNB-75 CNS) of entry `COC(=O)[C@]12C3=C(O)C(=O)C[C@H]1OC[C@H]2C=CC3` > 100 µM

Value wanted: TGI (SNB-75 CNS) of entry `O=C(N/N=C/c1cc(Cl)ccc1O)c1ccccc1Nc1ccnc(C(F)(F)F)c1` 20.8 µM

Value wanted: TGI (SNB-75 CNS) of entry CCn1cc(C(=O)N/N=C/c2cccs2)c(=O)c2cc(F)c(N3CCNC(C)C3)c(F)c21 (centres undefined) 2.83 µM

Value wanted: TGI (SNB-75 CNS) of entry `COc1ccc(NC(=O)c2oc3cc(O)ccc3c(=O)c2C)c([N+](=O)[O-])c1` > 100 µM

Value wanted: TGI (SNB-75 CNS) of entry `O=C1c2ccn(CCCNC(CO)(CO)CO)c2C(=O)c2c1c(O)c1ccccc1c2O` > 100 µM

Value wanted: TGI (SNB-75 CNS) of entry OC(CN1CCCC2CCCCC21)c1cc2ccccc2c2ccccc12 (centres undefined) 6.83 µM

Value wanted: TGI (SNB-75 CNS) of entry `CN(C)N=Nc1cccc(C(N)=O)c1` > 100 µM

Value wanted: TGI (SNB-75 CNS) of entry `Cc1cc(N(CCC#N)CCC#N)ccc1/C=C(\NC(=O)/C=C/c1ccccc1)C(=O)Nc1ccc(Cl)cc1` > 100 µM

====

Please go through the items and note down their TGI.
- Tested on: NCI-H226 lung
- MEASUREMENT_PROTOCOL: NCI tumour cell line growth inhibition, 48 h

Fill in: TGI of `COc1c2cc([N+](=O)[O-])cc1CN(C(=O)C(F)(F)F)CCOCCN(C(=O)C(F)(F)F)C2` is ___ > 100 µM

Fill in: TGI of O=C(Nc1ccc([N+](=O)[O-])cc1[N+](=O)[O-])C(=O)C(C(=O)c1ccc(Cl)c(Cl)c1)C1OC(=O)c2ccccc21 (stereo not given) is ___ 36 µM

Fill in: TGI of `O=C1C[C@@H]2[C@@H](c3ccccc3)[C@@H]3C(=O)c4ccccc4NC(=O)[C@H]3[C@]2(O)c2ccccc2N1` is ___ > 100 µM

Fill in: TGI of COC(=O)C12C34C=CC5(CCC6(C=CC1(CC3)O6)C52C(=O)OC)O4 (stereo not given) is ___ > 100 µM

Fill in: TGI of C[C@]12Cc3conc3C(O)=C1CC[C@@H]1C2CC[C@@]2(C)C1CC[C@]2(C)O (stereo not given in full) is ___ 47.3 µM

Fill in: TGI of COC(=O)C(=O)C(C(C)=O)C(=O)NCc1ccccc1 (stereo not given) is ___ > 100 µM

Fill in: TGI of `COc1ccc2cc(CN3CCC(C4CCN(Cc5ccc6cc(OC)ccc6c5)CC4)CC3)ccc2c1` is ___ 38.3 µM

Fill in: TGI of `O=C(Sc1n[nH]c(=O)[nH]c1=O)c1cccc2nc3ccccc3nc12` is ___ > 100 µM

Fill in: TGI of N#CC(C(=N/O)/C(=N\O)C(C#N)c1ccccc1)c1ccccc1 (stereo not given) is ___ > 100 µM

Fill in: TGI of `CCOC(=O)/C(C#N)=C\Sc1ccccc1` is ___ 43 µM

====

- System: OVCAR-3 ovarian
- MEASUREMENT_PROTOCOL: NCI tumour cell line growth inhibition, 48 h
Please go through the items and note down their GI50.

Fill in: GI50 of `COCCNCc1ccc(-c2cc3nccc(Oc4ccc(NC(=O)C5(C(=O)Nc6ccc(F)cc6)CC5)cc4F)c3s2)nc1` is ___ 2.2 µM

Fill in: GI50 of `O=C1c2ccn(CCCNC(CO)(CO)CO)c2C(=O)c2c1c(O)c1ccccc1c2O` is ___ 6.71 µM

Fill in: GI50 of CN(C)CC1C(=O)O[C@H]2[C@H]1CC/C(COC(=O)NCc1ccc(Cn3c(=O)sn(CCCI)c3=O)cc1)=C\CC[C@@]1(C)O[C@@H]21 (some centres undefined) is ___ 0.775 µM

Fill in: GI50 of `O=C(CSC(c1ccccc1)c1ccccc1)N/N=C/c1ccccc1Cl` is ___ 15.6 µM

====

Please go through the items and note down their TGI.
- System: SR leukemia
- MEASUREMENT_PROTOCOL: NCI tumour cell line growth inhibition, 48 h

Fill in: TGI of `CNn1c(-c2ccc(C)cc2)n[nH]c1=O` is ___ > 100 µM

Fill in: TGI of `O=C(Cn1c2c(c3ccccc31)CCCC2)N1CCCCC1` is ___ > 100 µM

Fill in: TGI of `Cc1nn(Cc2ccccc2)cc1C(=O)Nc1sc2c(c1C(N)=O)CCC(=O)C2` is ___ 8.81 µM

Fill in: TGI of COc1ccc(C(OCC2OC3(COC(c4ccccc4)(c4ccc(OC)cc4)c4ccc(OC)cc4)C(Oc4nc(=O)ccn43)C2O)(c2ccccc2)c2ccc(OC)cc2)cc1 (stereo not given) is ___ > 100 µM

Fill in: TGI of `O=C(COC(=O)c1cccc2c(=O)c3ccccc3[nH]c12)Nc1ccc(Cl)cc1` is ___ > 100 µM

Fill in: TGI of `O=c1oc2ccccc2c(O)c1C(c1cccc(C(c2c(O)c3ccccc3oc2=O)c2c(O)c3ccccc3oc2=O)c1)c1c(O)c2ccccc2oc1=O` is ___ 58.8 µM

Fill in: TGI of `CCOC(=O)CC(=O)Nc1cccc2sc3ncccc3c(=O)c12` is ___ > 100 µM

Fill in: TGI of `COC(=O)[C@]12C3=C(O)C(=O)C[C@H]1OC[C@H]2C=CC3` is ___ > 100 µM

Fill in: TGI of O=C1NC2(CCCCC2)C2CCCCC=C12 (stereo not given) is ___ > 100 µM

Fill in: TGI of CCCCCCCCC(C)CCCCCCCCC(=O)OCC(COP(=O)([O-])OCC[N+](C)(C)C)OC(=O)CCCCCCCCC(C)CCCCCCCC (stereo not given) is ___ > 100 µM

Fill in: TGI of NCCCC(N=Cc1nc(-c2ccccc2)oc1O)C(=O)O (stereo not given) is ___ > 100 µM

Fill in: TGI of `C=C1C(=O)O[C@H]2[C@H]1CC/C(COC(=O)CCCCCCCC(=O)OC/C1=C/CC[C@@]3(C)O[C@H]3[C@H]3OC(=O)C(=C)[C@@H]3CC1)=C\CC[C@@]1(C)O[C@@H]21` is ___ 10.6 µM

Fill in: TGI of `Cn1c2c(c3ccccc3c1=O)C(=O)c1ccccc1-2` is ___ > 100 µM

Fill in: TGI of `O=[N+]([O-])c1cccc(S(=O)(=O)N/N=C/c2cc(I)cc([N+](=O)[O-])c2O)c1` is ___ 60.9 µM

Fill in: TGI of CCO[C@@]12CCC3CC4CC[C@@](OCC)(O1)C4C32 (stereo not given in full) is ___ > 100 µM

Fill in: TGI of `CC(C)(O)CCc1cccc(C(=O)c2cnn(-c3ccc(F)cc3)c2N)c1` is ___ > 25 µM

Fill in: TGI of `C(=C\c1ccncc1)/c1ccncc1` is ___ > 100 µM

Fill in: TGI of `COc1ccc2c(C)cc(N/N=C/c3ccc(C)s3)nc2c1` is ___ 31 µM

Fill in: TGI of `S=c1[nH]n2c(COc3ccc(Cl)cc3)nnc2s1` is ___ > 100 µM

Fill in: TGI of `CC(C)c1[nH]nc2c(NCc3ccc(-c4ccccn4)cc3)nc(SCCN)nc12` is ___ 2.03 µM
